# procedure-details: Activity against Geranylgeranyl transferase type I
pIC50: −log10 of the molar value.
readout-name: pIC50

Prompt: Answer with the recorded pIC50 of CC[C@H](C)[C@H](NC[C@@H](NC[C@@H](N)CS)[C@@H](C)CC)C(=O)N[C@@H](CCO)C(=O)O only.
Completion: < 5.00

====

Quick reference: Concentration of the listed items.
# measured-on: Protein farnesyltransferase (Mus musculus) (UniProt Q61239+Q8K2I1)
# procedure-details: Inhibition of Ras-processing in H-Ras transformed NIH3T3 fibroblasts
# Type: functional, cell-based
Non-standard residues stand in square brackets, D forms with d. Residues, ends and D or L forms follow the SMILES beside them. *: point of attachment. Cbz = O=C(OCc1ccccc1)*; Bn = c1ccc(C*)cc1
In your response, the unit should come after the numeric value.

- compound: "CC(C)=CCC/C(C)=C/CC/C(C)=C/C(O)P(=O)(O)O (stereo not drawn)"
  measured-on: "Protein farnesyltransferase (Mus musculus) (UniProt Q61239+Q8K2I1)"
  readout-name: "Concentration"
  reported-result: "1 µM"
- compound: "CN(C(=O)[C@@H](Cc1c[nH]cn1)NC(=O)OCc1ccccc1)[C@@H](Cc1ccc(OCc2ccccc2)cc1)C(=O)NCCOCc1ccccc1"
  measured-on: "Protein farnesyltransferase (Mus musculus) (UniProt Q61239+Q8K2I1)"
  readout-name: "Concentration"
  reported-result: "2.5 µM"
- compound: "O=C(CN(Cc1ccc(OCc2ccccc2)cc1)C(=O)[C@H](Cc1c[nH]cn1)NC(=O)OCc1ccccc1)NCCc1ccccc1"
  measured-on: "Protein farnesyltransferase (Mus musculus) (UniProt Q61239+Q8K2I1)"
  readout-name: "Concentration"
  reported-result: "0.1 µM"
- compound: "COC(=O)[C@H](CCSC)NC(=O)[C@@H](NC(=O)[C@@H](NC(=O)CCP(=O)(O)C/C=C(\\C)CC/C=C(\\C)CCC=C(C)C)C(C)C)C(C)C"
  measured-on: "Protein farnesyltransferase (Mus musculus) (UniProt Q61239+Q8K2I1)"
  readout-name: "Concentration"
  reported-result: "0.1 µM"
- compound: "CC(C)=CCC/C(C)=C/CC/C(C)=C/CCP(=O)(O)CP(=O)(O)O"
  measured-on: "Protein farnesyltransferase (Mus musculus) (UniProt Q61239+Q8K2I1)"
  readout-name: "Concentration"
  reported-result: "1 µM"

Prompt: Quickly give me recorded Concentration for O=C(N[C@H](Cc1c[nH]cn1)C(=O)N[C@@H](Cc1ccc(OCc2ccccc2)cc1)C(=O)NCCOCc1ccccc1)OCc1ccccc1
Completion: 5 µM

Prompt: Respond only with Concentration recorded for O=C(CN(Cc1ccc(OCc2ccccc2)cc1)C(=O)[C@H](Cc1c[nH]cn1)NC(=O)OCc1ccccc1)NCCOCc1ccccc1
Completion: 1 µM

Prompt: Please report the measured Concentration for C[C@@H](NC(=O)[C@H](Cc1c[nH]c2ccccc12)NC(=O)[C@H](COCc1ccccc1)NC(=O)[C@H](Cc1ccc(OCc2ccccc2)cc1)NC(=O)[C@@H](Cc1c[nH]cn1)NC(=O)OCc1ccccc1)C(N)=O (Cbz-[dH]Y(Bn)S(Bn)W[dA]-NH2)
Completion: 25 µM
